Where do these numbers come from? They come from paper PMC12087874.

Molecular target: STAT5b (Homo sapiens, UniProt P51692)
Sequence (P51692 1-787): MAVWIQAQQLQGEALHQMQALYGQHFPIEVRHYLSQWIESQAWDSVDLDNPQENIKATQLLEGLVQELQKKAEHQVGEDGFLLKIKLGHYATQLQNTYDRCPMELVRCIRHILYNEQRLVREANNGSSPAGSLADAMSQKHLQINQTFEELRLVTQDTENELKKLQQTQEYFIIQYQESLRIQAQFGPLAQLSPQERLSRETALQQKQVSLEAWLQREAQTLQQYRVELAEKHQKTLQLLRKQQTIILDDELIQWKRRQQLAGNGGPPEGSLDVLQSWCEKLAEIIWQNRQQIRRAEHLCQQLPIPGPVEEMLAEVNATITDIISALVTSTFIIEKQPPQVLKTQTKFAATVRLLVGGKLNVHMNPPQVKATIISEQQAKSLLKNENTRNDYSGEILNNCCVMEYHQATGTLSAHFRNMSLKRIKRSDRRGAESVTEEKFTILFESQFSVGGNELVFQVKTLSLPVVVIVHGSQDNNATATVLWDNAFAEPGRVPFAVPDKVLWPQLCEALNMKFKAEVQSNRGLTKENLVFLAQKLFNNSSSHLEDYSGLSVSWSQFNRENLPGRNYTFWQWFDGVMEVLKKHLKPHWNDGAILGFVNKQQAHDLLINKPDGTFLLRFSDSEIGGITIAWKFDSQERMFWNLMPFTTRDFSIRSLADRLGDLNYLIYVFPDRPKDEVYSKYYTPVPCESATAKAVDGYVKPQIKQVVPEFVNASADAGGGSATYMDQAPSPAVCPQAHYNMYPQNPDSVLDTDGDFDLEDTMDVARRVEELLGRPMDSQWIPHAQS
Threshold check on Ki: strictly below 40 µM is Yes; on or above 40 µM is No.

1. O=P(O)(O)Oc1ccc(-c2ccccc2)cc1 [Compound 1, para‐biphenyl phosphate] = No
2. O=P(O)(O)Oc1ccc(-c2ccc3ccccc3c2)cc1F = Yes
3. O=P(O)(O)Oc1ccc(-c2ccc3ccccc3c2)cc1 = No

Query: Check if Ki falls below 40 µM for "O=P(O)(O)Oc1ccc(-c2ccccc2)cc1F" .
Reply: No

---

Target: STAT1 (Homo sapiens)
Sequence (P42224 1-750): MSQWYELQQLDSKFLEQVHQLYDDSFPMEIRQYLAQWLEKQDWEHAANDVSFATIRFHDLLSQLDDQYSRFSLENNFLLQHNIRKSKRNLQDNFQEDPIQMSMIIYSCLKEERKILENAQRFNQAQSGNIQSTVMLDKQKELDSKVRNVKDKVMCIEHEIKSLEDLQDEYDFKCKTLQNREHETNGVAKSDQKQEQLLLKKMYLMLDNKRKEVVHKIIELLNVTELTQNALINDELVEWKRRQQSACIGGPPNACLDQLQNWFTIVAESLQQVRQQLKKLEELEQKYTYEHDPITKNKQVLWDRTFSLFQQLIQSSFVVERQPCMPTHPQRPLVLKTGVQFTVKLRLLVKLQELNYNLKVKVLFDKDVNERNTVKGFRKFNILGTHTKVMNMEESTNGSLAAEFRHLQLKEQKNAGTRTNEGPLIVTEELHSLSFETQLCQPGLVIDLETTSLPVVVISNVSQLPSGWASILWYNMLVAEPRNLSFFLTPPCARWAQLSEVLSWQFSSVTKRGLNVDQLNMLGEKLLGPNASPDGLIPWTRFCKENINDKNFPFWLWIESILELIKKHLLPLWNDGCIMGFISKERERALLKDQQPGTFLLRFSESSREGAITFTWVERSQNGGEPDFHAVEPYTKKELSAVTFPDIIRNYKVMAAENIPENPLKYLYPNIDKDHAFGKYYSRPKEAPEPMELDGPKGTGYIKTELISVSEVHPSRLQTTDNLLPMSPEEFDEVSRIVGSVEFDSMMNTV
REPORTED METRIC: pKi
Note on units: pKi is unitless, being -log10 of a concentration expressed in mol/L.

1) O=P(O)(O)Oc1ccc(-c2ccccc2)cc1 [Compound 1, para‐biphenyl phosphate] = 5.09
2) Cc1cc(-c2ccc(C(F)(F)P(=O)(O)O)c(F)c2)cs1 [Compound 8k] = 4.62

Next compound, please.
Query: What value of pKi on STAT1 (Homo sapiens) does O=P(O)(O)Oc1ccc(-c2ccc3ccccc3c2)cc1 [Compound 6g] have?
Reply: 4.96
